Assayed system: C-C chemokine receptor type 5 (Homo sapiens)
Sequence (P51681 whole entry): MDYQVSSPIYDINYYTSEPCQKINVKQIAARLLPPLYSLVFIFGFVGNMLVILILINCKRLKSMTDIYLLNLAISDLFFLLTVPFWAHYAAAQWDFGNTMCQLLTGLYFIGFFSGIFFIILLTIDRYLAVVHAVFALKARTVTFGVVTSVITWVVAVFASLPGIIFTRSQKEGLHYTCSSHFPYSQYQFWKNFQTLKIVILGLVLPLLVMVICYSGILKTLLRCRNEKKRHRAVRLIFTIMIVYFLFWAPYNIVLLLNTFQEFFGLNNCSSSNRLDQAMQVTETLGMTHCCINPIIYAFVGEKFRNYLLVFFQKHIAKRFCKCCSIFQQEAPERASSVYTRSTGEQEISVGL
Protocol notes: Inhibition of [125I]-MIP-1 alpha binding to human CCR5 receptor expressed in Chinese hamster ovary (CHO) cells
Assay type: cell-based
Recorded metric: pIC50
Scale explanation: pIC50 corresponds to minus log10 of a concentration expressed in moles per litre.

Compound	pIC50
CN(C[C@@H](CCN1CCC(c2ccc(Cl)cc2)CC1)c1cccc(Cl)c1)S(=O)(=O)c1ccccc1	6.70
CN(C[C@@H](CCN1CCC2(CC1)CC(O)c1ccccc12)c1cccc(Cl)c1)S(=O)(=O)c1ccccc1 (some centres undefined)	7.00
CN(C[C@@H](CCN1CCC2(CCc3ccccc32)CC1)c1cccc(Cl)c1)S(=O)(=O)c1ccccc1	6.74
Cc1ccccc1N1CCN(CC[C@H](CN(C)S(=O)(=O)c2ccccc2)c2cccc(Cl)c2)CC1	5.62
COc1ccccc1C1CCN(CC[C@H](CN(C)S(=O)(=O)c2ccccc2)c2cccc(Cl)c2)CC1	7.15

C-C chemokine receptor type 5 (Homo sapiens) assay, compound CN(C[C@@H](CCN1CCC2(CC1)Cc1ccccc1O2)c1cccc(Cl)c1)S(=O)(=O)c1ccccc1 , recorded pIC50 = 6.59

C-C chemokine receptor type 5 (Homo sapiens) assay, compound CN(C[C@@H](CCN1CCC(c2ccc(F)cc2)CC1)c1cccc(Cl)c1)S(=O)(=O)c1ccccc1 , recorded pIC50 = 7.60

C-C chemokine receptor type 5 (Homo sapiens) assay, compound CN(C[C@@H](CCN1CCC(CCCc2ccccc2)CC1)c1cccc(Cl)c1)S(=O)(=O)c1ccccc1 , recorded pIC50 = 8.30

C-C chemokine receptor type 5 (Homo sapiens) assay, compound Cc1ccccc1C1CCN(CC[C@H](CN(C)S(=O)(=O)c2ccccc2)c2cccc(Cl)c2)CC1 , recorded pIC50 = 6.40

C-C chemokine receptor type 5 (Homo sapiens) assay, compound CN(C[C@@H](CCN1CCC2(CC1)CNc1ccccc12)c1cccc(Cl)c1)S(=O)(=O)c1ccccc1 , recorded pIC50 = 7.30

C-C chemokine receptor type 5 (Homo sapiens) assay, compound CN(C[C@@H](CCN1CCN(c2ccccc2)CC1)c1cccc(Cl)c1)S(=O)(=O)c1ccccc1 , recorded pIC50 = 6.15

C-C chemokine receptor type 5 (Homo sapiens) assay, compound CN(C[C@@H](CCN1CCC2(CC1)CC(=O)Nc1ccccc12)c1cccc(Cl)c1)S(=O)(=O)c1ccccc1 , recorded pIC50 = 7.46

C-C chemokine receptor type 5 (Homo sapiens) assay, compound CN(C[C@@H](CCN1CCC(Cc2ccccc2)CC1)c1cccc(Cl)c1)S(=O)(=O)c1ccccc1 , recorded pIC50 = 6.60

C-C chemokine receptor type 5 (Homo sapiens) assay, compound CN(C[C@@H](CCN1CCC(CCc2ccccc2)CC1)c1cccc(Cl)c1)S(=O)(=O)c1ccccc1 , recorded pIC50 = 7.19

C-C chemokine receptor type 5 (Homo sapiens) assay, compound CN(C[C@@H](CCN1CCC2(CC1)NC(=O)c1ccccc12)c1cccc(Cl)c1)S(=O)(=O)c1ccccc1 , recorded pIC50 = 7.35

----------
Assayed system: C-C chemokine receptor type 5 (Homo sapiens)
Protocol notes: Inhibition of [125I]-MIP-1 alpha binding to human CCR5 receptor expressed in Chinese hamster ovary (CHO) cells
Type: cell-based
pIC50 values for the molecules below.
Scale explanation: pIC50 corresponds to minus log10 of a concentration expressed in moles per litre.

Consider the following illustrative entries.
Smiles repr	Assayed system	pIC50
CN(C[C@@H](CCN1CCC(c2cccc(C(F)(F)F)c2)CC1)c1cccc(Cl)c1)S(=O)(=O)c1ccccc1	C-C chemokine receptor type 5 (Homo sapiens)	6.92
CN(C[C@@H](CCN1CCC2(CC1)CNC(=O)c1ccccc12)c1cccc(Cl)c1)S(=O)(=O)c1ccccc1	C-C chemokine receptor type 5 (Homo sapiens)	7.46
CN(C[C@@H](CCN1CCC2(CC1)CC(=O)c1ccccc12)c1cccc(Cl)c1)S(=O)(=O)c1ccccc1	C-C chemokine receptor type 5 (Homo sapiens)	8.30

Now look at this one.
C-C chemokine receptor type 5 (Homo sapiens) assay, molecule CN1C(=O)c2ccccc2C12CCN(CC[C@H](CN(C)S(=O)(=O)c1ccccc1)c1cccc(Cl)c1)CC2 , recorded pIC50 = 7.00
